Tested on: Lewis strain laboratory rats
assayExplanation: In vivo alleviation of inflammation: polyarthritis (adjuvant, Mycobacterium butyricum) in rats, inhibition of paw volume increase
runConditions: po, 336 h; 25 mpk p.o., rat; read-out: % INH. p.o. (percentage inhibition of pad swelling)
Protocol: Polyarthritis was induced in Lewis strain laboratory rats (weight=about 200 grams) by injection of a suspension of Mycobacterium butyricum in mineral oil into the subplantar tissue of the mammal's hind paws. On day 10 after the injection, the rats were assigned to groups, and paw volumes and body weights were recorded. Paw volumes of the contralateral, uninjected hind paw were determined by mercury plethylsmography. Per oral (p.o.) dosing began and continued for five consecutive days thereafter. […]
Response key: condition met means inhibition in vivo at 25 mg/kg >= 40%; condition not met means inhibition in vivo at 25 mg/kg < 40%.

In plain terms: is recorded inhibition in vivo at 25 mg/kg at least 40% for `COc1ccc(-n2nc(CCC(=O)N(C)OC)cc2-c2ccc(Cl)cc2)cc1` ? condition met

In plain terms: is recorded inhibition in vivo at 25 mg/kg at least 40% for `CSc1ccc(-n2nc(CCCO)cc2-c2ccc(Cl)cc2)cc1` ? condition met

In plain terms: is recorded inhibition in vivo at 25 mg/kg at least 40% for `COc1ccc(-n2nc(CCC(=O)N(C)O)cc2-c2ccc(F)cc2)cc1` ? condition met

In plain terms: is recorded inhibition in vivo at 25 mg/kg at least 40% for `COc1ccc(-n2nc(CCC(N)=O)cc2-c2ccc(Cl)cc2)cc1` ? condition met

In plain terms: is recorded inhibition in vivo at 25 mg/kg at least 40% for `COC(=O)c1ccc(/C=C/CCc2cc(-c3ccc(Cl)cc3)n(-c3ccc(OC)cc3)n2)cc1` ? condition not met

In plain terms: is recorded inhibition in vivo at 25 mg/kg at least 40% for `COc1ccc(-n2nc(CCCOC(=O)CCc3cc(-c4ccc(Cl)cc4)n(-c4ccc(OC)cc4)n3)cc2-c2ccc(Cl)cc2)cc1` ? condition met

In plain terms: is recorded inhibition in vivo at 25 mg/kg at least 40% for `COc1ccc(-n2nc(CCCNO)cc2-c2ccc(Cl)cc2)cc1` ? condition met

In plain terms: is recorded inhibition in vivo at 25 mg/kg at least 40% for `O=C(O)CCc1cc(-c2ccc(Cl)cc2)n(-c2ccccc2)n1` ? condition met

In plain terms: is recorded inhibition in vivo at 25 mg/kg at least 40% for `COc1ccc(-n2nc(CCC(=O)ONC(C)(C)C)cc2-c2ccc(Cl)cc2)cc1` ? condition met

In plain terms: is recorded inhibition in vivo at 25 mg/kg at least 40% for `OCCCc1cc(-c2ccc(Cl)cc2)n(-c2ccc(Br)cc2)n1` ? condition met

In plain terms: is recorded inhibition in vivo at 25 mg/kg at least 40% for `COc1ccc(-n2nc(CCCO)cc2-c2ccc(-c3ccccc3)cc2)cc1` ? condition not met

In plain terms: is recorded inhibition in vivo at 25 mg/kg at least 40% for `COc1ccc(-n2nc(CCCO)cc2-c2ccc(F)cc2)cc1` ? condition met

In plain terms: is recorded inhibition in vivo at 25 mg/kg at least 40% for `COc1ccc(-n2nc(CCC=NO)cc2-c2ccc(Cl)cc2)cc1` ? condition met

In plain terms: is recorded inhibition in vivo at 25 mg/kg at least 40% for `COc1ccc(-n2nc(CCC(=O)NO)cc2-c2ccc(Cl)cc2)cc1` ? condition met

In plain terms: is recorded inhibition in vivo at 25 mg/kg at least 40% for `COc1ccc(-n2nc(CCC(=O)Nc3ccc(O)cc3)cc2-c2ccc(Cl)cc2)cc1` ? condition not met

In plain terms: is recorded inhibition in vivo at 25 mg/kg at least 40% for `CCN(CC)C(=O)CCc1cc(-c2ccc(Cl)cc2)n(-c2ccc(OC)cc2)n1` ? condition met

In plain terms: is recorded inhibition in vivo at 25 mg/kg at least 40% for `COc1ccc(-n2nc(CC/C=C\CCCC(=O)O)cc2-c2ccc(Cl)cc2)cc1` ? condition met

In plain terms: is recorded inhibition in vivo at 25 mg/kg at least 40% for `OCCCc1cc(-c2ccc(Cl)cc2)n(-c2ccccc2C(F)(F)F)n1` ? condition not met

Cited source for all entries: patent US5164381A
